- Assayed target: Cdk2(S276C) (C177A) (Homo sapiens, UniProt P24941, C177A/S276C)
- Construct: poly-histidine; made in house; host or cells: E. coli
- Assay details: Kinetic thiol consumption assay with Cdk2 mutant S276C
- Type: binding
- Condition parameters: Protein: Cdk2; cysteine position S276C; additional mutation C177A; in h^-1

{"Molecule": "C=CC(=O)N1CCN(C(=O)OCC)CC1c1cccs1 (stereo not drawn)", "Rate constant with Cdk2 S276C": 0.0198}
{"Molecule": "C=CC(=O)Nc1cccc2ncccc12", "Rate constant with Cdk2 S276C": 0.05118}
{"Molecule": "C=CC(=O)N1CC2CC2C1 (stereo not drawn)", "Rate constant with Cdk2 S276C": 0.004395}
{"Molecule": "C=CC(=O)N1CCC2(CC1)NC(=O)N(C)C2=O", "Rate constant with Cdk2 S276C": 0.01153}
{"Molecule": "C=CC(=O)Nc1[nH]nc(C2CC2)c1-c1ccc2c(c1)OCO2", "Rate constant with Cdk2 S276C": 0.003524}
{"Molecule": "C=CC(=O)N1CCC(c2nc3ccccc3[nH]2)CC1", "Rate constant with Cdk2 S276C": 0.01203}
{"Molecule": "C=CC(=O)N(CC(=O)NC1CC1)C1CC1", "Rate constant with Cdk2 S276C": 0.009212}
{"Molecule": "C=CC(=O)Nc1nc2ccccc2n1CCc1ccccn1", "Rate constant with Cdk2 S276C": 0.05252}
{"Molecule": "C=CC(=O)NCc1ccccc1", "Rate constant with Cdk2 S276C": 0.005718}
{"Molecule": "C=CC(=O)N(Cc1ccco1)C12CC3CC(CC(C3)C1)C2", "Rate constant with Cdk2 S276C": 0.5651}
{"Molecule": "C=CC(=O)N1CCC(NC(=O)C2CCC2)C1 (stereo not drawn)", "Rate constant with Cdk2 S276C": 0.008557}
{"Molecule": "C=CC(=O)N1CCCC1CC1CC2CCC1C2 (stereo not drawn)", "Rate constant with Cdk2 S276C": 0.006194}
{"Molecule": "C=CC(=O)NC1(C(N)=O)CCCCC1", "Rate constant with Cdk2 S276C": 0.0007587}
{"Molecule": "C=CC(=O)NCC1CCCN1S(=O)(=O)c1ccc(C(=O)O)cc1 (stereo not drawn)", "Rate constant with Cdk2 S276C": 0.0009842}
{"Molecule": "C=CC(=O)NCC1CN(C2CC2)CCO1 (stereo not drawn)", "Rate constant with Cdk2 S276C": 0.006591}
{"Molecule": "C=CC(=O)N1CCN(c2ccccc2C(N)=O)CC1", "Rate constant with Cdk2 S276C": 0.01513}
{"Molecule": "C=CC(=O)Nc1ccc(C(=O)OC)cc1", "Rate constant with Cdk2 S276C": 0.06356}
{"Molecule": "C=CC(=O)NC1CC2CC1C1CCCC21 (stereo not drawn)", "Rate constant with Cdk2 S276C": 0.001155}
{"Molecule": "C=CC(=O)N1CC(Cc2ccccc2)C1", "Rate constant with Cdk2 S276C": 0.08965}
{"Molecule": "C=CC(=O)N1CCCCCC1c1ccc(N(C)C)cc1 (stereo not drawn)", "Rate constant with Cdk2 S276C": 0.001645}
{"Molecule": "C=CC(=O)N1CCN(Cc2ccc(Cl)cc2)CC1", "Rate constant with Cdk2 S276C": 0.005301}
{"Molecule": "C=CC(=O)N1CC2(CCC2)c2c(F)cccc21", "Rate constant with Cdk2 S276C": 0.007587}
{"Molecule": "C=CC(=O)N1CCCCCC1C/C=C/c1ccccc1 (stereo not drawn)", "Rate constant with Cdk2 S276C": 0.01436}
{"Molecule": "C=CC(=O)N1CCN(c2cccc3cccnc23)CC1", "Rate constant with Cdk2 S276C": 0.02375}
